Biological target: T1, recombinant BACE1 (BACE1 extracellular domain, R&D Systems Cat#931-AS) (UniProt P56817 22-457)
T1 construct: extracellular domain; also called BACE1 extracellular domain protein
T1 sequence (P56817 22-457): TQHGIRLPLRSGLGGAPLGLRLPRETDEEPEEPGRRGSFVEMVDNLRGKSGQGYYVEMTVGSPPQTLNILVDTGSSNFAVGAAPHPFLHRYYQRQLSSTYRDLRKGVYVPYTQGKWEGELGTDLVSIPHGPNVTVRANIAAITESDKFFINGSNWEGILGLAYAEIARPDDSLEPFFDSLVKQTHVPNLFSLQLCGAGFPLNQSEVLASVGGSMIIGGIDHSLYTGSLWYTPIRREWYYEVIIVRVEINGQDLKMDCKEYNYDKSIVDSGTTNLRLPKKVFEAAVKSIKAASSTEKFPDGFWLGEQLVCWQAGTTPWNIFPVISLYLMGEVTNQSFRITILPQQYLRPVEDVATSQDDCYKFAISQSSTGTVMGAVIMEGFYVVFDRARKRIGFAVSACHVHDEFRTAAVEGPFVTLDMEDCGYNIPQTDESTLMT
Test: SPR Biacore 8K, antibody captured, BACE1 analyte
Protocol: The binding affinities of the affinity matured humanized 2H8 variants for BACE1 were determined by surface plasmon resonance using a Biacore™ 8K instrument. […] The binding was monitored for 300 seconds and then dissociation was monitored for 600+ seconds in HBS-EP+ running buffer (GE Healthcare Life Sciences, BR100669). Binding response was corrected by subtracting the RU from a blank flow cell. A 1:1 Langmuir model of simultaneous fitting of kₒₙ and koff was used for kinetics analysis.
Exercise: state measured Kd for each of the binders provided.
Give bare numbers, in nM.

BINDER | Kd / nM
hu2H8v29.12 (antibody, V domains shown, captured via human Fc; also called hu2H8_LC5 + hu2H8_HC6.1) VH: QVQLVQSGAEVKKPGASVKVSCKASGYTFNNFWIHWVRQAPGQGLEWMGMIDPSDSYTKYNQKFKARATLTVDTSTSTVYMELSSLRSEDTAVYYCARSGVAFPYWGQGTLVTVSS VL: DIQMTQSPSSLSASVGDRVTITCKASQDVGRNVAWYQQKPGKSPKSLIYSASHRYSGVPSRFSGSGSGTDFTLTISSLQPEDFATYFCQQYNSYPYTFGQGTKVEIK | 8.42
hu2H8v29.22 (antibody, V domains shown, captured via human Fc; also called hu2H8_LC5 + hu2H8_HC6.11) VH: QVQLVQSGAEVKKPGASVKVSCKASGYTFTNFWIHWVRQAPGQGLEWMGMIDPSDSYTKYNQKFKARATLTVDTSTSTVYMELSSLRSEDTAVYYCARSGVALPSWGQGTLVTVSS VL: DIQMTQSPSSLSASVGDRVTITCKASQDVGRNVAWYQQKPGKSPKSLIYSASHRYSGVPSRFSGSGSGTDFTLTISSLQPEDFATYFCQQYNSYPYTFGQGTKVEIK | 6

// next entry
// recorded Kd for hu2H8v29.27 (antibody, V domains shown, captured via human Fc; also called hu2H8_LC5.12 + hu2H8_HC6.16) VH: QVQLVQSGAEVKKPGASVKVSCKASGYTFTNFWIHWVRQAPGQGLEWMGMIDPSSSYTKYNQKFKARATLTVDTSTSTVYMELSSLRSEDTAVYYCARSGASLPYWGQGTLVTVSS VL: DIQMTQSPSSLSASVGDRVTITCKASQDVGRNVAWYQQKPGKSPKSLIYSASHYYSGVPSRFSGSGSGTDFTLTISSLQPEDFATYFCQQYYSYPYTFGQGTKVEIK : 3.4
